Target: hD1R (Homo sapiens, UniProt P21728)
Construct: gene DRD1; full-length receptor, no tag stated, transiently expressed in HEK-293T with GloSensor-22F cAMP reporter
Sequence (P21728 whole entry): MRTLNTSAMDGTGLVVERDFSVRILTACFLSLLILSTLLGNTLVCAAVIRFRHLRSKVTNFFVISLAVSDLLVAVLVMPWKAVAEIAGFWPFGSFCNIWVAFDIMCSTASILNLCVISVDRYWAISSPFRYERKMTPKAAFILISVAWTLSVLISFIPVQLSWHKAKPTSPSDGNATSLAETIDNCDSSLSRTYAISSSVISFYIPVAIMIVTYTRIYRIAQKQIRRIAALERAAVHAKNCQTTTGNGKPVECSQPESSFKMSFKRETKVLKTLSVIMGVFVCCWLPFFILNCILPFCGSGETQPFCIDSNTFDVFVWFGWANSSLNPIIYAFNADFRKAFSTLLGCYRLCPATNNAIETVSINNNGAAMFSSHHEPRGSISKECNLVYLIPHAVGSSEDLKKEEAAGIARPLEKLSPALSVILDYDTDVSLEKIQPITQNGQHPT
Assay: GloSensor cAMP accumulation in HEK-293T, suppression of dopamine-induced cAMP
Type: cell-based
Conditions: allosteric; high dopamine present; room temperature
PROPERTY_MEASURED: pIC50
Please treat pIC50 as minus the base-10 logarithm of the molar concentration.

Data request: Note pIC50 for the compound shown: COc1cn(-c2ccccc2)nc1C(=O)N[C@H]1C[C@@H]1c1cccc(F)c1
Data returned: 4.51

###

Molecular target: hD1R-Rluc8 (Homo sapiens, UniProt P21728)
Construct: gene DRD1; full-length receptor fused to Rluc8 (BRET donor), expressed in HEK-293T with Venus-β-arrestin-2 (BRET acceptor)
Assay: BRET β-arrestin-2 recruitment in HEK-293T
Type: cell-based
Settings: allosteric; no dopamine (constitutive activation)
PROPERTY_MEASURED: EC50 (µM)
Give the value in µM but do not write µM after it.

Data request: Note EC50 for the compound shown: COc1cn(-c2ccccc2)nc1C(=O)N[C@H]1C[C@@H]1c1cccc(F)c1 [DUSBI-C5]
Data returned: 30
